target: Core antigen (Hepatitis B virus) (UniProt Q03732)
Sequence (Q03732 as listed by the source): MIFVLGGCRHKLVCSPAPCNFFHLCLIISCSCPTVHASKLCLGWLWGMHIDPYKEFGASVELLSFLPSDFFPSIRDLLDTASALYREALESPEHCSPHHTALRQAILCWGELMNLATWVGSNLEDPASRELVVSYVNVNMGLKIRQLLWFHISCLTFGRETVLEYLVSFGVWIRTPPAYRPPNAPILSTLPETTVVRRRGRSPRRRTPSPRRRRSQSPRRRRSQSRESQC
test.details: Inhibition of GFP-fused Hepatitis B Virus capsid expressed in HEK293T cells at 50 uM after 48 hrs relative to control
Format: cell-based
Calls of active or inactive are those of the source. The rule behind the calls is not given here.
value.type: inhibition

Example results:
> print(dat)
                                   compound                                    target    result
1  COc1ccc(C(=O)Nc2ncc(C(Oc3ccc4ccc(Br)cc4c3)c3ccc(S(C)(=O)=O)cc3)s2)cc1 (stereo not given)  Core antigen (Hepatitis B virus) (UniProt Q03732)  inactive
2  O=S(=O)(Nc1ncc(C(Oc2ccc3cc(Br)ccc3c2)c2ccc(Cl)cc2)s1)c1ccccc1 (stereo not given)  Core antigen (Hepatitis B virus) (UniProt Q03732)       63%
3  CC(C)(C)OC(=O)Nc1ncc(C(Oc2ccc3cc(Br)ccc3c2)c2ccc(Cl)cc2)s1 (stereo not given)  Core antigen (Hepatitis B virus) (UniProt Q03732)       55%
4  CCN(CC)C(=O)Nc1ncc(C(Oc2ccc3cc(Br)ccc3c2)c2ccc(Cl)cc2)s1 (stereo not given)  Core antigen (Hepatitis B virus) (UniProt Q03732)       67%

Exercise: Need inhibition, item COc1ccc(COC(c2ccccc2)c2cnc(NC(=O)c3cccs3)s2)cc1 (stereo not given)
Solution: 64%

Exercise: Need inhibition, item CC(C)(C)OC(=O)Nc1ncc(C(Oc2ccc(Cc3ccccc3)cc2)c2ccc(Cl)cc2)s1 (stereo not given)
Solution: inactive

Exercise: Need inhibition, item O=C(Nc1ncc(C(OCc2ccc(F)cc2F)c2ccccc2)s1)c1cccs1 (stereo not given)
Solution: 26%

Exercise: Need inhibition, item "O=C(Nc1ncc(Cc2ccc(F)cc2)s1)c1ccccc1"
Solution: 60%

Exercise: Need inhibition, item "Cc1ccc(C(=O)Nc2ncc(Cc3ccc(F)cc3)s2)cc1"
Solution: 53%

Exercise: Need inhibition, item COCCNc1ncc(C(Oc2ccc3cc(Br)ccc3c2)c2ccc(Cl)cc2)s1 (stereo not given)
Solution: 37%

###

The molecules listed here are annotated with their pIC50.
Tested on: Hepatitis B virus
test.details: Antiviral activity against Hepatitis B virus infected in human HepG2.2.15 cells assessed as inhibition of viral replication after 7 days by RT-PCR analysis
Format: functional, organism-based
run.conditions: HepG2.2.15, 168 h
Please note pIC50 is a logarithmic value: minus log10 of concentration in mol/L. Answer with that number alone.

> print(dat)
                                   molecule  value.type  number
1  O=S(=O)(Nc1ncc(C(Oc2ccc3cc(Br)ccc3c2)c2ccc(Cl)cc2)s1)c1ccccc1 (stereo not drawn)       pIC50    5.63
2  O=S(=O)(Nc1ncc(C(Oc2ccc3cc(Br)ccc3c2)c2ccc(Cl)cc2)s1)c1cccc2cccnc12 (stereo not drawn)       pIC50    6.74

Lab note: next molecule to report on.
Exercise: Need pIC50, item "O=C(Nc1ncc(Cc2ccc(Cl)cc2)s1)c1cccs1"
Solution: 5.44

###

target: Core antigen (Hepatitis B virus) (UniProt Q03732)
test.details: Inhibition of GFP-fused Hepatitis B Virus capsid expressed in HEK293T cells at 50 uM after 48 hrs relative to control
Type: cell-based
The source made the active and inactive calls. No cut-off for these calls is given here.
value.type: inhibition

> print(dat)
                                   molecule    result
1  O=C(Nc1ncc(C(Oc2ccc3cc(Br)ccc3c2)c2ccc(Cl)cc2)s1)C1CC1 (stereo not given)       67%
2  CC(C)(C)OC(=O)Nc1ncc(C(Oc2ccc(F)c(Cl)c2)c2ccc(Cl)cc2)s1 (stereo not given)  inactive
3  O=C(Nc1ncc(Cc2ccc(F)cc2)s1)c1ccc(Cl)cc1Cl  inactive
4  COc1ccc(Br)c(COC(c2ccccc2)c2cnc(NC(=O)c3cccs3)s2)c1 (stereo not given)       45%

Lab note: next molecule to report on.
Exercise: Need inhibition, item "O=C(Nc1ncc(Cc2ccc(F)cc2)s1)C1CCCCC1"
Solution: inactive

###

target: Core antigen (Hepatitis B virus) (UniProt Q03732)
test.details: Inhibition of GFP-fused Hepatitis B Virus capsid expressed in HEK293T cells at 50 uM after 48 hrs relative to control
Assay type: cell-based
Activity calls are given as the source filed them. The rule behind the calls is not given here.
value.type: inhibition

> print(dat)
                                   molecule    result
1  CC(C)(C)OC(=O)Nc1ncc(C(Oc2ccc(Br)cc2)c2ccc(Cl)cc2)s1 (stereo not drawn)  inactive
2       O=C(Nc1ncc(Cc2ccc(Br)cc2)s1)c1cccs1  inactive
3  COC(=O)CCCCNc1ncc(C(Oc2ccc3cc(Br)ccc3c2)c2ccc(Cl)cc2)s1 (stereo not drawn)       40%
4  O=S(=O)(Nc1ncc(C(Oc2ccc3cc(Br)ccc3c2)c2ccc(Cl)cc2)s1)c1ccc(Cl)cc1 (stereo not drawn)       50%
5  Cc1cc(Br)cc(OC(c2ccc(Cl)cc2)c2cnc(NC(=O)OC(C)(C)C)s2)c1 (stereo not drawn)  inactive
6  O=S(=O)(Nc1ncc(C(Oc2ccc3cc(Br)ccc3c2)c2ccc(Cl)cc2)s1)c1ccc(Cl)nc1 (stereo not drawn)       30%

Exercise: Need inhibition, item COc1ccc(C(=O)Nc2ncc(C(Oc3ccc4cc(Br)ccc4c3)c3ccc(Cl)cc3)s2)cc1 (stereo not drawn)
Solution: 54%

Exercise: Need inhibition, item Cc1ccc(C)c(S(=O)(=O)Nc2ncc(C(Oc3ccc4cc(Br)ccc4c3)c3ccc(Cl)cc3)s2)c1 (stereo not drawn)
Solution: inactive

Exercise: Need inhibition, item O=C(Nc1ncc(C(Oc2ccc3cc(Br)ccc3c2)c2ccc(Cl)cc2)s1)c1cccs1 (stereo not drawn)
Solution: 47%

Exercise: Need inhibition, item "O=C(Nc1ncc(Cc2ccc(Cl)cc2)s1)c1ccc(F)cc1F"
Solution: inactive

Exercise: Need inhibition, item COc1ccc(C(=O)Nc2ncc(C(Oc3ccc4cc(Br)ccc4c3)c3ccc(C#N)cc3)s2)cc1 (stereo not drawn)
Solution: inactive

Exercise: Need inhibition, item Cc1ccc(S(=O)(=O)Nc2ncc(C(Oc3ccc4cc(Br)ccc4c3)c3ccc(Cl)cc3)s2)c2ccccc12 (stereo not drawn)
Solution: inactive

Exercise: Need inhibition, item Clc1ccc(C(Oc2ccc3cc(Br)ccc3c2)c2cnc(NCC3CCOCC3)s2)cc1 (stereo not drawn)
Solution: 43%

Exercise: Need inhibition, item O=C(Nc1ncc(C(Oc2ccc3cc(Br)ccc3c2)c2ccc(Cl)cc2)s1)C1CCOCC1 (stereo not drawn)
Solution: 66%

Exercise: Need inhibition, item O=C(Nc1ncc(C(Oc2ccc3cc(Br)ccc3c2)c2ccc(Cl)cc2)s1)c1ccc(F)cc1Br (stereo not drawn)
Solution: 65%

###

target: UniProt Q03732
test.details: Inhibition of GFP-fused Hepatitis B Virus capsid expressed in HEK293T cells at 50 uM after 48 hrs relative to control
Type: cell-based
Calls of active or inactive are those of the source. The rule behind the calls is not given here.
value.type: inhibition

Example results:
> print(dat)
                                   compound          target  value.type    result
1  O=C(Nc1ncc(Cc2ccc(Br)cc2)s1)c1ccc2ccccc2c1  UniProt Q03732  inhibition  inactive
2  Cc1noc(C)c1C(=O)Nc1ncc(C(Oc2ccc3cc(Br)ccc3c2)c2ccc(Cl)cc2)s1 (centres undefined)  UniProt Q03732  inhibition       64%
3  N#Cc1cccc(C(=O)Nc2ncc(C(Oc3ccc4cc(Br)ccc4c3)c3ccc(Cl)cc3)s2)c1 (centres undefined)  UniProt Q03732  inhibition       70%
4  O=C(Nc1ncc(C(Oc2ccc3cc(Br)ccc3c2)c2ccc(Cl)cc2)s1)C1CCCO1 (centres undefined)  UniProt Q03732  inhibition       35%
5  COCCc1ccc(OC(c2ccc(Cl)cc2)c2cnc(NC(=O)OC(C)(C)C)s2)cc1 (centres undefined)  UniProt Q03732  inhibition  inactive

Exercise: Please provide the recorded inhibition for O=C(Nc1ncc(C(OCc2ccc(Cl)cc2)c2ccccc2)s1)c1cccs1 (centres undefined) , tested on UniProt Q03732.
Solution: 59%

Exercise: Please provide the recorded inhibition for O=C(Nc1ncc(C(Oc2ccc3cc(Br)ccc3c2)c2ccc(Cl)cc2)s1)c1ccc(Cl)nc1 (centres undefined) , tested on UniProt Q03732.
Solution: 45%

Exercise: Please provide the recorded inhibition for O=S(=O)(Nc1ncc(C(Oc2ccc3cc(Br)ccc3c2)c2ccc(Cl)cc2)s1)c1ccc2ccccc2c1 (centres undefined) , tested on UniProt Q03732.
Solution: inactive

Exercise: Please provide the recorded inhibition for O=S(=O)(Nc1ncc(C(Oc2ccc3cc(Br)ccc3c2)c2ccc(Cl)cc2)s1)c1cccc2nsnc12 (centres undefined) , tested on UniProt Q03732.
Solution: 50%

###

The compounds listed here are annotated with their inhibition.
target: Core antigen (Hepatitis B virus)
test.details: Inhibition of GFP-fused Hepatitis B Virus capsid expressed in HEK293T cells at 50 uM after 48 hrs relative to control
Assay type: cell-based

Example results:
compound	inhibition
CCOC(=O)CCCNc1ncc(C(Oc2ccc3cc(Br)ccc3c2)c2ccc(Cl)cc2)s1 (stereo not drawn)	35%
CC(=O)O[C@@H]1OC(C(=O)Nc2ncc(C(Oc3ccc4cc(Br)ccc4c3)c3ccc(Cl)cc3)s2)[C@@H](OC(C)=O)[C@@H](OC(C)=O)[C@H]1OC(C)=O (stereo partly drawn)	40%
O=S(=O)(Nc1ncc(C(Oc2ccc3cc(Br)ccc3c2)c2ccc(Cl)cc2)s1)c1cccc2cccnc12 (stereo not drawn)	63%
COc1ccc(C(=O)Nc2ncc(C(Oc3ccc4cc(Br)ccc4c3)c3ccc(Br)cc3)s2)cc1 (stereo not drawn)	78%
O=C(Nc1ncc(C(OCc2ccc(F)cc2Br)c2ccccc2)s1)c1cccs1 (stereo not drawn)	27%
CCCCC(CC)CNc1ncc(C(Oc2ccc3cc(Br)ccc3c2)c2ccc(Cl)cc2)s1 (stereo not drawn)	55%

Exercise: Need inhibition, item COc1ccc(C(=O)Nc2ncc(C(Oc3ccc4cc(Br)ccc4c3)c3ccc(F)cc3)s2)cc1 (stereo not drawn)
Solution: 76%
